target: human opioid receptor-like (ORL-1) (Homo sapiens (Human)); experiment: In vitro ORL-1 receptor [35S]GTPγS functional assay
Reported EC50 values for a set of compounds
OBSERVABLE: EC50 (nM)

1. COC(=O)c1ccc2c(c1)CN(c1nc3ccccc3n(C3CCN(C4CCCCCCC4)CC3)c1=O)CC2 [compound 44] :: 392
2. NC(=O)[C@H](CO)Nc1nc2ccccc2n(C2CCN(C3CCCCCCC3)CC2)c1=O [compound 33] :: 211
3. COC(=O)[C@@H]1C[C@@H](O)CN1c1nc2ccccc2n(C2CCN(C3CCCCCCC3)CC2)c1=O [compound 28] :: 1880
4. COC(=O)C(CO)Nc1nc2ccccc2n(C2CCN(C3CCCCCCC3)CC2)c1=O (stereo not drawn) [compound 46] :: 399
5. CS(=O)(=O)N[C@@H]1CCN(c2nc3ccccc3n(C3CCN(C4CCCCCCC4)CC3)c2=O)C1 [compound 66] :: 108
6. CCOC(=O)CN(C)c1nc2ccccc2n(C2CCN(C3CCCCCCC3)CC2)c1=O [compound 61] :: 1230
7. O=C(O)c1nc2ccc(F)cc2n([C@H]2C[C@H]3CC[C@@H](C2)N3C2CCCCCCC2)c1=O [compound 133] :: 473
8. CC(NC(=O)c1nc2ccccc2n([C@H]2C[C@H]3CC[C@@H](C2)N3C2CCCCCCC2)c1=O)C(=O)O (stereo partly drawn) [compound 312] :: 138
9. COC(=O)C1CCN(c2nc3ccccc3n(C3CCN(C4CCCCCCC4)CC3)c2=O)CC1 [compound 16] :: 3750
10. O=C1CCN(c2nc3ccccc3n(C3CCN(C4CCCCCCC4)CC3)c2=O)N1 [compound 119] :: 3660
11. CC(=O)Nc1nc2ccccc2n(C2CCN(C3CCCCCCC3)CC2)c1=O [compound 17] :: 7870
12. O=C(O)c1nc2ccccc2n([C@H]2C[C@H]3CCC[C@@H](C2)N3C2C3CC4CC(C3)CC2C4)c1=O (stereo partly drawn) [compound 363] :: 4090

---

molecular target: delta opioid receptor (Homo sapiens (Human), UniProt P41143); assay: In vitro delta-opioid receptor binding assay ([3H]-Naltrindole displacement)
Sequence (P41143 whole entry): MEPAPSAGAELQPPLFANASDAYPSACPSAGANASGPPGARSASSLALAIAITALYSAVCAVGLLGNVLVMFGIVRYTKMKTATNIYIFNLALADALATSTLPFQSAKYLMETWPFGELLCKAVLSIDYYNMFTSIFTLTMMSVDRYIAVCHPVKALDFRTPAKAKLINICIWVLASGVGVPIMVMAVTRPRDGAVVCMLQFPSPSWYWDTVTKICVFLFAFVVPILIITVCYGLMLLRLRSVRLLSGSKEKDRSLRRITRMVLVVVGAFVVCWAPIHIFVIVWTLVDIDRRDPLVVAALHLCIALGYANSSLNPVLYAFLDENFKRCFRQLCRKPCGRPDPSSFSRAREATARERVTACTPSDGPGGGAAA
OBSERVABLE: Ki (µM)

1. O=C(O)c1nc2ccccc2n(C2CC3CCCC(C2)N3C23CC4CC(CC2C4)C3)c1=O (stereo not shown) :: 526

---

molecular target: human opioid receptor-like (ORL-1) (Homo sapiens (Human), UniProt P41146); assay: In vitro ORL-1 receptor [35S]GTPγS functional assay
Sequence (P41146 whole entry): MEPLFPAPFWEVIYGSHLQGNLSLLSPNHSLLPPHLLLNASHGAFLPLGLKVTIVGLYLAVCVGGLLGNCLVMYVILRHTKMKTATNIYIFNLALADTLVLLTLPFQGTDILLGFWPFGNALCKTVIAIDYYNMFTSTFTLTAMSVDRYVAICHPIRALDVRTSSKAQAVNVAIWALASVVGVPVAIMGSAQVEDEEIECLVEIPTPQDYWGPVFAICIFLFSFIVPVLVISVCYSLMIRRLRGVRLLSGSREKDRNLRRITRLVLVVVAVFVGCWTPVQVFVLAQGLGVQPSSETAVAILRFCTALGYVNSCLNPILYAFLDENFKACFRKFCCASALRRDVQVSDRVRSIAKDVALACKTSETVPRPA
pEC50: −log10 of the molar value.
OBSERVABLE: pEC50

1) NC(=O)[C@@H]1CCCN1c1nc2ccccc2n(C2CCN(C3CCCCCCC3)CC2)c1=O :: 6.27
2) N=C(N)NCCNc1nc2ccccc2n(C2CCN(C3CCCCCCC3)CC2)c1=O :: 6.96
3) O=C(Nc1ccc(=O)[nH]c1)c1nc2ccccc2n(C2CCN(C3CCCCCCC3)CC2)c1=O :: 6.74
4) NC(=O)CNc1nc2ccccc2n(C2CCN(C3CCCCCCC3)CC2)c1=O :: 6.39
5) CONC(=O)c1nc2ccccc2n(C2CCN(C3CCCCCCC3)CC2)c1=O :: 6.25
6) C=CCNc1nc2ccccc2n(C2CCN(C3CCCCCCC3)CC2)c1=O :: 6.21
7) O=c1c(NC[C@@H](O)CO)nc2ccccc2n1C1CCN(C2CCCCCCC2)CC1 :: 6.33
8) NCC(O)CNc1nc2ccccc2n(C2CCN(C3CCCCCCC3)CC2)c1=O (centres unmarked) :: 6.82
9) O=c1c(NC[C@@H](O)CO)nc2ccccc2n1C1CCN(C23CC4CC(CC(C4)C2)C3)CC1 :: 6.09
10) CC(=O)N1CCC(Nc2nc3ccccc3n(C3CCN(C4CCCCCCC4)CC3)c2=O)CC1 :: 6.09
11) CC(=O)N[C@H]1CCN(c2nc3ccccc3n(C3CCN(C4CCCCCCC4)CC3)c2=O)C1 :: 6.42
12) CS(=O)(=O)NC1CCN(c2nc3ccccc3n(C3CCN(C4CCCCCCC4)CC3)c2=O)CC1 :: 6.16
13) CONC(=O)c1nc2ccccc2n([C@H]2C[C@H]3CC[C@@H](C2)N3C2CCCCCCC2)c1=O :: 6.58
14) CCOC(=O)c1nc2ccccc2n(C2CCN(C3CCCCCCC3)CC2)c1=O :: 6.10
15) O=c1c(NC[C@H](O)CO)nc2ccccc2n1C1CCN(C2CCCCCCC2)CC1 :: 6.38
16) O=C1CN(c2nc3ccccc3n(C3CCN(C4CCCCCCC4)CC3)c2=O)CCN1 :: 5.89
17) CC(C)CCC(C)N1[C@@H]2CCC[C@H]1C[C@@H](n1c(=O)c(C(=O)O)nc3ccccc31)C2 (some centres unmarked) :: 6.53

---

molecular target: human opioid receptor-like (ORL-1) (Homo sapiens (Human), UniProt P41146); experiment: In vitro ORL-1 receptor [35S]GTPγS functional assay
pEC50: −log10 of the molar value.
OBSERVABLE: pEC50

1) CN(C)c1nc2ccccc2n(C2CCN(C3CCCCCCC3)CC2)c1=O :: 6.24
2) O=C(O)c1nc2ccccc2n([C@H]2C[C@H]3CC[C@@H](C2)N3C23CC4CC(CC2C4)C3)c1=O :: 6.98
3) O=C(O)CN(CCNC(=O)c1nc2ccccc2n([C@H]2C[C@H]3CC[C@@H](C2)N3C23CC4CC(CC(C4)C2)C3)c1=O)CC(=O)O :: 6.96
4) O=C(O)c1nc2ccccc2n([C@H]2C[C@H]3CCC[C@@H](C2)N3CCC2CCCCC2)c1=O :: 6.67
5) O=c1c(N2CC[C@H](O)C2)nc2ccccc2n1C1CCN(C2CCCCCCC2)CC1 :: 6.32
6) O=C(O)CN1CCN(c2nc3ccccc3n([C@H]3C[C@H]4CC[C@@H](C3)N4C3CCCCCCC3)c2=O)CC1 :: 6.36
7) O=C(NOCc1ccccc1)c1nc2ccccc2n(C2CCN(C3CCCCCCC3)CC2)c1=O :: 6.74

---

molecular target: human opioid receptor-like (ORL-1) (Homo sapiens (Human)); assay: In vitro ORL-1 receptor [35S]GTPγS functional assay
OBSERVABLE: log10 of EC50 (log10 of the value in nM)

1) NC(=O)C1CCCN(c2nc3ccccc3n(C3CCN(C4CCCCCCC4)CC3)c2=O)C1 (stereo not shown) :: 3.33
2) CN(CC(=O)O)C(=O)c1nc2ccccc2n([C@H]2C[C@H]3CC[C@@H](C2)N3C2CCCCCCC2)c1=O :: 2.60
3) CC(C)(C)OC(=O)Nc1nc2ccccc2n(C2CCN(C3CCCCCCC3)CC2)c1=O :: 3.67
4) O=c1c(N2CC[C@@H](O)C2)nc2ccccc2n1C1CCN(C2CCCCCCC2)CC1 :: 2.71
5) NC(=O)C1CCN(c2nc3ccccc3n(C3CCN(C4CCCCCCC4)CC3)c2=O)CC1 :: 2.67
6) CN(CC(O)CO)c1nc2ccccc2n(C2CCN(C3CCCCCCC3)CC2)c1=O (stereo not shown) :: 2.54
7) CC(=O)N1CC2CN(c3nc4ccccc4n(C4CCN(C5CCCCCCC5)CC4)c3=O)CC2C1 (stereo not shown) :: 3.23
8) CC(C)(C)OC(=O)NCCNc1nc2ccccc2n(C2CCN(C3CCCCCCC3)CC2)c1=O :: 2.99
9) O=C(O)c1ccc(CNC(=O)c2nc3ccccc3n([C@H]3C[C@H]4CC[C@@H](C3)N4C3CCCCCCC3)c2=O)nc1 :: 2.37
10) O=c1c(N2Cc3ccccc3C2)nc2ccccc2n1C1CCN(C2CCCCCCC2)CC1 :: 2.46
11) O=c1c(NCC(O)CO)nc2ccccc2n1C1CCN(C2CCCCCCC2)CC1 (stereo not shown) :: 2.89
12) O=C(O)c1ccc(CNC(=O)c2nc3ccccc3n([C@H]3C[C@H]4CC[C@@H](C3)N4C3CCCCCCC3)c2=O)cc1 :: 2.66
13) NC(=O)CNc1nc2ccccc2n(C2CCN(C34CC5CC(CC(C5)C3)C4)CC2)c1=O :: 2.66
14) CC(C)(C)OC(=O)N1CCN(c2nc3ccccc3n(C3CCN(C4CCCCCCC4)CC3)c2=O)CC1 :: 3.66
15) CC(=O)N[C@@H]1CCN(c2nc3ccccc3n(C3CCN(C4CCCCCCC4)CC3)c2=O)C1 :: 2.42
16) CC(C)CC(C)N1[C@@H]2CCC[C@H]1C[C@@H](n1c(=O)c(C(=O)O)nc3ccccc31)C2 (stereo partly shown) :: 2.18
17) CC1(N2[C@@H]3CCC[C@H]2C[C@@H](n2c(=O)c(C(=O)O)nc4ccccc42)C3)CCCCCCC1 :: 2.24
18) O=C(O)CC(NC(=O)c1nc2ccccc2n([C@H]2C[C@H]3CC[C@@H](C2)N3C2CCCCCCC2)c1=O)C(=O)O (stereo partly shown) :: 2.62
19) N#Cc1nc2ccccc2n(C2CCN(C3CCCCCCC3)CC2)c1=O :: 2.30
20) O=C(O)c1nc2ccccc2n([C@H]2C[C@H]3CCCC[C@@H](C2)N3C2/C=C\CCCCC2)c1=O (stereo partly shown) :: 2.13
21) O=C(NCC(O)CO)c1nc2ccccc2n(C2CCN(C3CCCCCCC3)CC2)c1=O (stereo not shown) :: 2.85
22) CCOC(=O)CNc1nc2ccccc2n(C2CCN(C3CCCCCCC3)CC2)c1=O :: 2.69
23) O=C(O)C1CCCN1C(=O)c1nc2ccccc2n([C@H]2C[C@H]3CC[C@@H](C2)N3C2CCCCCCC2)c1=O (stereo partly shown) :: 2.74
24) CNC(=O)c1nc2ccccc2n(C2CCN(C3CCCCCCC3)CC2)c1=O :: 2.56
25) O=C(O)c1nc2ccccc2n(C2CC3CCCC(C2)N3C23CC4CC(CC2C4)C3)c1=O (stereo not shown) :: 2.47
26) COC(=O)[C@@H]1CCCN1c1nc2ccccc2n(C2CCN(C3CCCCCCC3)CC2)c1=O :: 2.99
27) O=C(c1nc2ccccc2n(C2CCN(C3CCCCCCC3)CC2)c1=O)N1CC2CNCC2C1 (stereo not shown) :: 2.58
28) NC(=O)CCNc1nc2ccccc2n(C2CCN(C3CCCCCCC3)CC2)c1=O :: 2.62
29) CC(C)(C)OC(=O)NC1CCN(c2nc3ccccc3n(C3CCN(C4CCCCCCC4)CC3)c2=O)CC1 :: 3.17
30) CSCCC(NC(=O)c1nc2ccccc2n([C@H]2C[C@H]3CC[C@@H](C2)N3C2CCCCCCC2)c1=O)C(=O)O (stereo partly shown) :: 2.82
31) O=C(O)c1cccc(CNc2nc3ccccc3n([C@H]3C[C@H]4CC[C@@H](C3)N4C3CCCCCCC3)c2=O)c1 :: 2.60
